System: LK-2
assay notes: relative viability (nuclei count vs DMSO), 5 days (fraction); higher = more cells survive
condition info: first compound 4 µM
measurement name: relative viability

C[C@@H]1CN(CC(=O)Nc2ccc3c(c2)Cc2cccc(-c4cc(=O)cc(N5CCOCC5)o4)c2S3)C[C@H](C)O1 + Nc1ncn([C@H]2C[C@H](O)[C@@H](CO)O2)c(=O)n1 [Decitabine] (partner 2 µM) : 0.257
C[C@@H]1CN(CC(=O)Nc2ccc3c(c2)Cc2cccc(-c4cc(=O)cc(N5CCOCC5)o4)c2S3)C[C@H](C)O1 + Cc1nc(NC(=O)N2CCC[C@H]2C(N)=O)sc1-c1ccnc(C(C)(C)C(F)(F)F)c1 [Alpelisib] (partner 2 µM) : 1.28
C[C@@H]1CN(CC(=O)Nc2ccc3c(c2)Cc2cccc(-c4cc(=O)cc(N5CCOCC5)o4)c2S3)C[C@H](C)O1 + COc1cc2c(Oc3ccc(NC(=O)C4(C(=O)Nc5ccc(F)cc5)CC4)cc3F)ccnc2cc1OCCCN1CCOCC1 [Foretinib] (partner 0.25 µM) : 1.47

====

System: NCI-H2405
assay notes: relative viability (nuclei count vs DMSO), 5 days (fraction); higher = more cells survive
condition info: first compound 0.3162 µM
molecules and their reported relative viability
measurement name: relative viability

CC(C)Oc1cc(Nc2nc(N[C@@H](C)c3ccc(F)cn3)ncc2Cl)n[nH]1 [AZ23] + Cc1nc(NC(=O)N2CCC[C@H]2C(N)=O)sc1-c1ccnc(C(C)(C)C(F)(F)F)c1 [Alpelisib] (partner 2 µM) : 0.754
CC(C)Oc1cc(Nc2nc(N[C@@H](C)c3ccc(F)cn3)ncc2Cl)n[nH]1 [AZ23] + CC(=O)Nc1cccc(-n2c(=O)n(C3CC3)c(=O)c3c(Nc4ccc(I)cc4F)n(C)c(=O)c(C)c32)c1 [Trametinib] (partner 0.02 µM) : 0.599

====

Tested on: NCI-H2087
assay notes: relative viability (nuclei count vs DMSO), 5 days (fraction); higher = more cells survive
condition info: first compound 0.8 µM
measurement name: relative viability

CCCCCCCCCCCC1=C(O)C(=O)C=C(O)C1=O [Embelin] + O=C(c1cc(Cc2n[nH]c(=O)c3ccccc23)ccc1F)N1CCN(C(=O)C2CC2)CC1 [Olaparib] (partner 8 µM) : 0.729
CCCCCCCCCCCC1=C(O)C(=O)C=C(O)C1=O [Embelin] + NC(=O)Nc1cc(-c2cccc(F)c2)sc1C(=O)N[C@H]1CCCNC1 [AZD7762] (partner 0.2 µM) : 1.37
CCCCCCCCCCCC1=C(O)C(=O)C=C(O)C1=O [Embelin] + COc1cc2c(Oc3ccc(NC(=O)C4(C(=O)Nc5ccc(F)cc5)CC4)cc3F)ccnc2cc1OCCCN1CCOCC1 [Foretinib] (partner 0.25 µM) : 1.27
CCCCCCCCCCCC1=C(O)C(=O)C=C(O)C1=O [Embelin] + CC1(C)CCC(c2ccc(Cl)cc2)=C(CN2CCN(c3ccc(C(=O)NS(=O)(=O)c4ccc(N[C@H](CCN5CCOCC5)CSc5ccccc5)c(S(=O)(=O)C(F)(F)F)c4)cc3)CC2)C1 [Navitoclax] (partner 0.5 µM) : 1.17
CCCCCCCCCCCC1=C(O)C(=O)C=C(O)C1=O [Embelin] + Cc1nc(NC(=O)N2CCC[C@H]2C(N)=O)sc1-c1ccnc(C(C)(C)C(F)(F)F)c1 [Alpelisib] (partner 2 µM) : 1.13

====

compounds and their reported relative viability
Tested on: SK-MES-1
assay notes: relative viability (nuclei count vs DMSO), 5 days (fraction); higher = more cells survive
condition info: first compound 0.8 µM
measurement name: relative viability

CCCCCCCCCCCC1=C(O)C(=O)C=C(O)C1=O [Embelin] + Cc1cc(Nc2cc(N3CCN(C)CC3)nc(Sc3ccc(NC(=O)C4CC4)cc3)n2)n[nH]1 [Tozasertib] (partner 0.1 µM) : 0.989
CCCCCCCCCCCC1=C(O)C(=O)C=C(O)C1=O [Embelin] + Nc1ncn([C@H]2C[C@H](O)[C@@H](CO)O2)c(=O)n1 [Decitabine] (partner 2 µM) : 0.396
CCCCCCCCCCCC1=C(O)C(=O)C=C(O)C1=O [Embelin] + CC(=O)c1c(C)c2cnc(Nc3ccc(N4CCNCC4)cn3)nc2n(C2CCCC2)c1=O [Palbociclib] (partner 0.5 µM) : 0.374
CCCCCCCCCCCC1=C(O)C(=O)C=C(O)C1=O [Embelin] + C[C@@H](Oc1cc(-c2cnn(C3CCNCC3)c2)cnc1N)c1c(Cl)ccc(F)c1Cl [Crizotinib] (partner 1 µM) : 1.1

====

Test system: EPLC-272H
assay notes: relative viability (nuclei count vs DMSO), 5 days (fraction); higher = more cells survive
condition info: first compound 8 µM
measurement name: relative viability

CCCCCCCCCCCC1=C(O)C(=O)C=C(O)C1=O [Embelin] + CC(=O)Nc1cccc(-n2c(=O)n(C3CC3)c(=O)c3c(Nc4ccc(I)cc4F)n(C)c(=O)c(C)c32)c1 [Trametinib] (partner 0.02 µM) : 0.253
CCCCCCCCCCCC1=C(O)C(=O)C=C(O)C1=O [Embelin] + CS(=O)(=O)N1CCN(Cc2cc3nc(-c4cccc5[nH]ncc45)nc(N4CCOCC4)c3s2)CC1 [Pictilisib] (partner 1 µM) : 0.276
CCCCCCCCCCCC1=C(O)C(=O)C=C(O)C1=O [Embelin] + COc1cccc2cc(-c3nc([C@H]4CC[C@H](C(=O)O)CC4)n4ncnc(N)c34)[nH]c12 [OSI-027] (partner 0.5 µM) : 0.255
CCCCCCCCCCCC1=C(O)C(=O)C=C(O)C1=O [Embelin] + CS(=O)(=O)CCNCc1ccc(-c2ccc3ncnc(Nc4ccc(OCc5cccc(F)c5)c(Cl)c4)c3c2)o1 [Lapatinib] (partner 2 µM) : 0.816
CCCCCCCCCCCC1=C(O)C(=O)C=C(O)C1=O [Embelin] + NC(=O)Nc1cc(-c2cccc(F)c2)sc1C(=O)N[C@H]1CCCNC1 [AZD7762] (partner 0.2 µM) : 0.188
CCCCCCCCCCCC1=C(O)C(=O)C=C(O)C1=O [Embelin] + CC(C)C[C@H](NC(=O)[C@H](Cc1ccccc1)NC(=O)c1cnccn1)B(O)O [Bortezomib] (partner 0.002 µM) : 0.86

====

compounds and their reported relative viability
Test system: HCC-366
assay notes: relative viability (nuclei count vs DMSO), 5 days (fraction); higher = more cells survive
condition info: first compound 0.4 µM
measurement name: relative viability

Clc1ccc(Nc2nnc(Cc3ccncc3)c3ccccc23)cc1 [Vatalanib] + CC(=O)Nc1cccc(-n2c(=O)n(C3CC3)c(=O)c3c(Nc4ccc(I)cc4F)n(C)c(=O)c(C)c32)c1 [Trametinib] (partner 0.02 µM) : 0.372
C[C@@H]1CN(CC(=O)Nc2ccc3c(c2)Cc2cccc(-c4cc(=O)cc(N5CCOCC5)o4)c2S3)C[C@H](C)O1 + CS(=O)(=O)N1CCN(Cc2cc3nc(-c4cccc5[nH]ncc45)nc(N4CCOCC4)c3s2)CC1 [Pictilisib] (partner 1 µM) : 0.138
COc1cc(N2CCC(C(N)=O)CC2)ccc1Nc1nc(N)c(Cl)c(Nc2ccccc2S(=O)(=O)C(C)C)n1 [HG-5-88-01] + CC(=O)Nc1cccc(-n2c(=O)n(C3CC3)c(=O)c3c(Nc4ccc(I)cc4F)n(C)c(=O)c(C)c32)c1 [Trametinib] (partner 0.02 µM) : 0.365
COc1cc(N2CCC(C(N)=O)CC2)ccc1Nc1nc(N)c(Cl)c(Nc2ccccc2S(=O)(=O)C(C)C)n1 [HG-5-88-01] + CC(=O)c1c(C)c2cnc(Nc3ccc(N4CCNCC4)cn3)nc2n(C2CCCC2)c1=O [Palbociclib] (partner 0.5 µM) : 0.356

====

System: NCI-H661
assay notes: relative viability (nuclei count vs DMSO), 5 days (fraction); higher = more cells survive
condition info: first compound 0.8 µM
compounds and their reported relative viability
measurement name: relative viability

CCCCCCCCCCCC1=C(O)C(=O)C=C(O)C1=O [Embelin] + CC(C)C[C@H](NC(=O)[C@H](Cc1ccccc1)NC(=O)c1cnccn1)B(O)O [Bortezomib] (partner 0.002 µM) : 0.867
CCCCCCCCCCCC1=C(O)C(=O)C=C(O)C1=O [Embelin] + O=C(c1cc(Cc2n[nH]c(=O)c3ccccc23)ccc1F)N1CCN(C(=O)C2CC2)CC1 [Olaparib] (partner 8 µM) : 0.75
CCCCCCCCCCCC1=C(O)C(=O)C=C(O)C1=O [Embelin] + CC(=O)Nc1cccc(-n2c(=O)n(C3CC3)c(=O)c3c(Nc4ccc(I)cc4F)n(C)c(=O)c(C)c32)c1 [Trametinib] (partner 0.02 µM) : 0.729
CCCCCCCCCCCC1=C(O)C(=O)C=C(O)C1=O [Embelin] + C[C@]1(O)C[C@@H](c2nc(-c3ccc4ccc(-c5ccccc5)nc4c3)c3c(N)nccn32)C1 [Linsitinib] (partner 1 µM) : 0.717
CCCCCCCCCCCC1=C(O)C(=O)C=C(O)C1=O [Embelin] + CS(=O)(=O)N1CCN(Cc2cc3nc(-c4cccc5[nH]ncc45)nc(N4CCOCC4)c3s2)CC1 [Pictilisib] (partner 1 µM) : 0.44
CCCCCCCCCCCC1=C(O)C(=O)C=C(O)C1=O [Embelin] + COc1cc2c(Oc3ccc(NC(=O)C4(C(=O)Nc5ccc(F)cc5)CC4)cc3F)ccnc2cc1OCCCN1CCOCC1 [Foretinib] (partner 0.25 µM) : 1.08
